Target: T1, full-length human 14-3-3β fused to the C terminus of MBP (human, UniProt P31946 1-246)
T1 chain: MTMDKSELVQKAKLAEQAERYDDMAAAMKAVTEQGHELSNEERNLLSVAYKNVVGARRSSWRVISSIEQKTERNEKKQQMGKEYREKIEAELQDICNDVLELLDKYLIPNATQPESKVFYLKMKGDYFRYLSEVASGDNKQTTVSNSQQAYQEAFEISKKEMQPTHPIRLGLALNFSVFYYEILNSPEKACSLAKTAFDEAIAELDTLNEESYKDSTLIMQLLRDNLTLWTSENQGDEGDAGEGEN
Experiment: FP
Non-standard residues stand in square brackets, D forms with d. No end group written: not given here. *: point of attachment. Biotin = O=C1N[C@H]2[C@H](CS[C@H]2CCCCC(=O)*)N1; pT = C[C@@H](OP(=O)(O)O)[C@H](N)C(=O)O; ttds = NCCCOCCOCCOCCCNC(=O)CCC(=O)*
Measured Parameter: pKd
Scale for pKd: -log10 of concentration given in mol/L; no unit attached.

A selection of reference data follows.
{Biotin-ttds}-RRVRKLPST[pT]L [RSK1 phospho-PBM peptide RSK1_-1P]: 6.15
{Biotin-ttds}-SSRTRRE[pT]QL [HPV16 E6 phospho-PBM peptide p16E6]: 3.80
{Biotin-ttds}-RRVRKLPS[pT]TL [RSK1 phospho-PBM peptide RSK1_-2P]: 6.00

The recorded pKd for entry {Biotin-ttds}-RLQRRRE[pT]QV [HPV18 E6 phospho-PBM peptide p18E6] equals 4.37

Taken from paper PMC7961048.
